# Test system: Tov-21-G
# PROCEDURE SUMMARY: Primary qHTS to identify gynecologic anti-cancer compounds using libraries of approved drugs and bioactive compounds (AID 1345084); note: % is set by controls: 0 for no effect and ±100 for the full control effect; nearly all actives have a fitted effect of over 55% in size
# COND: Gynecologic cancer cell panel viability, ATPlite luminescence, 48 h; series mostly up to 57.5 µM
Records with an inconclusive call do not appear. Calls of active or inactive are those of the source. Calls come from the whole dose curve; as a rule, active = well fitted cell-killing curve with a large enough effect; inconclusive = small, poorly fitted or top-dose-only effect, or effect the other way; inactive = flat fitted curve, though single readings scatter.
PROPERTY MEASURED: activity change, negative = cytotoxicity

Consider the reported activity change, negative = cytotoxicity for these compounds:
COMPOUND: CC1(C)CC[C@]2(C(=O)O[C@@H]3O[C@H](CO)[C@@H](O)[C@H](O)[C@H]3O)CC[C@]3(C)C(=CCC4[C@@]5(C)CC[C@H](O[C@H]6O[C@H](CO)[C@@H](O)[C@H](O[C@@H]7O[C@H](CO)[C@@H](O)[C@H](O)[C@H]7O)[C@H]6O)C(C)(C)C5CC[C@]43C)[C@@H]2C1 (some centres not stated)
activity change, negative = cytotoxicity: -3.87% [at 11.6 µM] (inactive)
--
COMPOUND: C/C(CO)=C1/CCC23COC(C2)C(O)(C(=O)O)CCC13 (configuration not stated)
activity change, negative = cytotoxicity: inactive
--
COMPOUND: CC1=COC(OC2OC(CO)C(O)C(O)C2O)C2C(CO)CC(OC(=O)/C=C/c3ccc(O)cc3)C12 (configuration not stated)
activity change, negative = cytotoxicity: inactive
--
COMPOUND: O=C(/C=C/c1ccccc1)OC[C@H]1O[C@@H](OC(=O)c2cc(O)c(O)c(O)c2)[C@H](O)[C@@H](O)[C@@H]1O
activity change, negative = cytotoxicity: inactive
--
COMPOUND: CC1(C)CC[C@]2(C(=O)OC3OC(CO)C(O)C(O)C3O)CC[C@]3(C)C(=CCC4[C@@]5(C)C[C@@H](O)[C@H](OC6OC(C(=O)O)C(O)C(O)C6O)C(C)(C)C5CC[C@]43C)[C@@H]2C1 (some centres not stated)
activity change, negative = cytotoxicity: 3.24% [at 11.6 µM] (inactive)

Under Tov-21-G, report activity change, negative = cytotoxicity for C[C@]1(C2CCCC2)Cc2cc(OCC(=O)O)c(Cl)c(Cl)c2C1=O inactive

Under Tov-21-G, report activity change, negative = cytotoxicity for CCCCC(=O)N1c2ccccc2NC2=C(C(=O)CCC2)C1c1ccccc1Cl (configuration not stated) inactive

###

# PROCEDURE SUMMARY: Primary fluorescence-based thiol-reactive (MSTI) qHTS assay for identification of artifact compounds. (AID 1845221); note: nearly all actives have a fitted effect of over 65% in size
# COND: MSTI thiol-reactivity probe, 1 h; series mostly up to 53.8 µM
Results filed as inconclusive are left out. The source made the active and inactive calls. The call rests on the fitted dose curve; in most records, active means well fitted inhibition curve with a large enough effect; inconclusive means small, poorly fitted or top-dose-only effect; inactive means no such curve, though single readings can be large or run the other way.
Your reply should match one of these outcome classes. True = active, False = inactive

Short answer needed: outcome of this test for CN(C)C(=O)C(O)C(Cc1ccccc1)NC(=O)c1cc2cc(Cl)ccc2[nH]1 (stereo not given) ? False

Short answer needed: outcome of this test for CC1(C)CC=C(C#Cc2ccccc2)c2cc(/C=C/c3ccc(C(=O)O)cc3)ccc21 ? False

Short answer needed: outcome of this test for Cc1ncc(NC(=O)c2ccc(CN3CCN(C)CC3)c(C(F)(F)F)c2)cc1Nc1nccc(-c2cccnc2)n1 ? False

Short answer needed: outcome of this test for C=C1[C@H]2CCC3[C@]4(C)CCC[C@@](C)(C(=O)O)C4CC[C@]3(C2)[C@H]1OC(C)=O (stereo not given in full) ? False

Short answer needed: outcome of this test for COc1cc2c(c(OC)c1O)C(c1ccc(O)cc1)C1C(=O)OC3C(COC(=O)C1=C2)OC(CO)(OC1OC(COC(=O)/C=C/c2ccc(OC4OC(C)C(O)C(O)C4O)cc2)C(O)C(O)C1O)C3O (stereo not given) ? True
